Source: patent US20220306744A1

EC50 (M), NFAT-Luciferase reporter gene assay for assorted binders
- Assay Target: human PD-1 expressed on cells (CHO TREX human PD1 cell line, full-length human PD-1 sequence) (human, UniProt Q15116 21-288)
- Sequence (Q15116 21-288): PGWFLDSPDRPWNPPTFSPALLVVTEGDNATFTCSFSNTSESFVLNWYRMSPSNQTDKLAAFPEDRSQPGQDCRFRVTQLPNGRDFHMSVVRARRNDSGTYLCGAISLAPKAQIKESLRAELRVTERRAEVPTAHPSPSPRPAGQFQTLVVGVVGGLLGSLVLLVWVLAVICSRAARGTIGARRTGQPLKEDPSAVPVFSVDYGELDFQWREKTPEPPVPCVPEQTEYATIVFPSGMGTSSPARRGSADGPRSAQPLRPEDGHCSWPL
- Measurement Notes: cell-based or functional assay
Kindly provide the numeric value in M only, without the unit symbol.

{"Binder": "1.92b-4GS-1.39a (other, Biparatopic VH-linker-VH; built from its parts here because it is not clear whether 1112 is the protein or the nucleic acid) EVQLVESGGGLVKPGGSLRLSCAASGFTFSDESMTWMRQAPGKGLEWVSYISSGGGVKFYADSVKGRFTISRDNAKNSLYLQMNSLRAEDTAVYYCAREAPLRLGESPHDAFDISGQGTMVTVSSGGGGSGGGGSGGGGSGGGGSEVQLVESGGGLVQPGRSLRLSCAASGFTFDDYALHWVRQAPGKDLEWVSGISWNGGSYGYADSVKGRFTISRDNAKNSLYLQMNSLRAEDTALYYCVREKGPGLTGSTADYYGLDAWGQGTMVTVSS", "Unit Descriptor": "M", "Numeric Result": "2e-09"}

Bench note: what EC50 (M), NFAT-Luciferase reporter gene assay did 1.1b-2GS-1.1a (other, Biparatopic VH-linker-VH; His tag implied by the assays; not in the chain) QVQLVESGGGLVKPGGSLRLSCAASGFTFSDYTMTWMRQAPGKGLEWVSYISTGGTIKYYTDSVKGRFTISRDNAKNSLYLQMNSLRADDTAVYYCAREAPLRLGESPHDAFDIWGQGTMVTVSSGGGGSGGGGSEVQLLESGGGSVQPGRSLRLSCAASGFTFDDHAMHWVRQAPGKGLEWVSGISWNSGSMGYADSVKDRFTISRDNAKSSLYLQMNSLRAEDTALYYCVREKGPGLTGSTADYYGLDVWGQGTMVTVSS show?
7.2e-09

Also, 1.77b-2GS-1.21a (other) EVQLVESGGGLVKPGGSLRLSCAASGFTFSDSSMTWMRQAPGKGLEWVSYISSGGGVKFYTDSVKGRFTISRDNAKNSLYLQMNSLRAEDTAVYYCAREAPLRLGESPHDAFDISGQGTMVTVSSGGGGSGGGGSEVQLVESGGGLVQPGRSLRLSCAASGFTFDDYAMHWVRQAPGKDLEWVSGISWNGGSMGYAASVKGRFTISRDNAKNSLYLQMNSLRAEDTALYYCVREKGPGLTGSTADYYGLDVWGQGTMVTVSS please.
2.1e-09

Also, 1.1a-4GS-1.57b (other) EVQLLESGGGSVQPGRSLRLSCAASGFTFDDHAMHWVRQAPGKGLEWVSGISWNSGSMGYADSVKDRFTISRDNAKSSLYLQMNSLRAEDTALYYCVREKGPGLTGSTADYYGLDVWGQGTMVTVSSGGGGSGGGGSGGGGSGGGGSQVQLVESGGGLVKPGGSLRLSCAASGFTFSDNSMTWMRQAPGKGLEWVSYISSGGGVIFYADSVKGRFTISRDNAKNSLYLQMNSLRADDTAVYYCAREAPLRLGESPHDAFDISGQGTMVTVSS please.
3.9e-09

Also, 1.92b-4GS-1.62a (other, Biparatopic VH-linker-VH; also called 1.92-4GS-1.62a; 1.92b-4gs-2.12a) EVQLVESGGGLVKPGGSLRLSCAASGFTFSDESMTWMRQAPGKGLEWVSYISSGGGVKFYADSVKGRFTISRDNAKNSLYLQMNSLRAEDTAVYYCAREAPLRLGESPHDAFDISGQGTMVTVSSGGGGSGGGGSGGGGSGGGGSEVQLVESGGGVVRPGGSLRLSCAASGFTFDDYAMSWVRQAPGKGLEWVSGITWNAGSTGYADSVKGRFTISRDNAKNSLYLQMNSLRAEDTALYYCVRDKYSYAWSYDDFDIWGQGTMVTVSS please.
1.2e-09
